Biological target: KRAS G12D (Homo sapiens, UniProt P01116, G12D)
Sequence (P01116 1-188 isoform P01116-2 G12D): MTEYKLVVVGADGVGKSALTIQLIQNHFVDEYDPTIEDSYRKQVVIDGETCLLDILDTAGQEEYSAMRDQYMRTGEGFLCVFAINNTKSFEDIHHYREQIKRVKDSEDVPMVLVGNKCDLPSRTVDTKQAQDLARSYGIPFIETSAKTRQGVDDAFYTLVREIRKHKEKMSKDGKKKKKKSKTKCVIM
Test: GDP-GTP exchange assay (bodipy-GDP/GppNHp, SOS1), KRAS G12D
Conditions: bodipy-loaded KRAS G12D 2.5 nM, 4 hours incubation after adding GppNHp-SOS1 mixture
pIC50: −log10 of the molar value.
Measured endpoint: pIC50

Examples with answers:
> print(dat)
                                   molecule  reported.result
1  CN(C)C1CN(c2nc(N3CCC(CC#N)C3)c3cc(CCC#N)c(-c4cc(O)cc5ccccc45)c(F)c3c2C#N)C1 (stereo not drawn)           ≥ 7.00
2  CN(C)C1CN(c2nc(N3C[C@@H](N)C[C@H]3CO)c3cc(CCC#N)c(-c4cc(O)cc5ccccc45)c(F)c3c2C#N)C1     6.00 to 7.00
3  CN(C)C1CN(c2nc(N3C4CCC3CNC4)c3cc(CCC#N)c(-c4cc(O)cc5ccccc45)c(F)c3c2Cl)C1     6.00 to 7.00
4  CN(C)C1CN(c2nc(N3CC[C@H](N)C3)c3cc(CCC#N)c(-c4cc(O)cc5ccccc45)c(F)c3c2C#N)C1           ≥ 7.00
5  CN(C)C1CN(c2nc(N3C4CCC3CNC4)c3cc(CCC#N)c(-c4cc(O)cc5ccccc45)c(F)c3c2-c2ccccc2)C1     5.00 to 5.30

For every item below, please supply its pIC50.
1. CCc1c(F)ccc2cc(O)cc(-c3ncc4c(N5CC6CCC(C5)N6)nc(N5CC(C)(N(C)C)C5)c(C#N)c4c3F)c12
2. CN(C)Cc1cccc(-c2nc(N3C4CCC3CNC4)c3cc(CCC#N)c(-c4cc(O)cc5ccccc45)c(F)c3c2C#N)c1
3. CN1CCC(Oc2nc(N3C4CCC3CNC4)c3cc(CCC#N)c(-c4cc(O)cc5ccccc45)c(F)c3c2C#N)CC1
4. N#Cc1c(OC[C@@]23CCCN2C[C@H](F)C3)nc(N2CC3CCC(C2)N3)c2cnc(-c3cc(O)cc4ccccc34)c(F)c12

## Output
≥ 7.00
6.00 to 7.00
6.00 to 7.00
≥ 7.00

====

Biological target: KRAS G12D (Homo sapiens, UniProt P01116, G12D)
Experiment: GDP-GTP exchange assay (bodipy-GDP/GppNHp, SOS1), KRAS G12D
Assay type: biochemical
Settings: bodipy-loaded KRAS G12D 2.5 nM, 4 hours incubation after adding GppNHp-SOS1 mixture
pIC50: −log10 of the molar value.
Field: pIC50. Provide a value for each of the molecules that follow.

Examples with answers:
> print(dat)
                            molecule.smiles  reported.result
1  CN(C)C1CN(c2nc(N3C4CCC3CNC4)c3cc(CCC#N)c(-c4cc(O)cc5ccccc45)c(F)c3c2C2CC2)C1     6.00 to 7.00
2  C[C@@H]1C[C@H](N)CN1c1nc(N2CC(N(C)C)C2)c(C#N)c2c(F)c(-c3cc(O)cc4ccccc34)c(CCC#N)cc12           ≥ 7.00
3  CN(C)C1CN(c2nc(N3C4CCC3CNC4)c3ccc(-c4cc(O)cc5ccccc45)c(F)c3c2C#N)C1           ≥ 7.00
4  CN(C)C1CN(c2nc(N3C[C@H]4CC[C@@H]3CN4)c3cc(CCC#N)c(-c4cc(O)cc5ccccc45)c(F)c3c2C#N)C1     6.00 to 7.00
5  Cc1c(N2CC(N(C)C)C2)nc(N2C3CCC2CNC3)c2cc(CCC#N)c(-c3cc(O)cc4ccccc34)c(F)c12     6.00 to 7.00
6  CN(C)C1CN(c2nc(N3C4CCC3CNC4)c3cc(CCC#N)c(-c4cc(O)cc5ccccc45)c(F)c3c2C#N)C1     6.00 to 7.00

Moving on to the next molecule.
KRAS G12D (Homo sapiens, UniProt P01116, G12D) assay, molecule CN1CCC[C@H]1COc1nc(N2C3CCC2CNC3)c2cc(CCC#N)c(-c3cc(O)cc4ccccc34)c(F)c2c1C#N , recorded pIC50 = 6.00 to 7.00
